The measurements presented in this section are drawn from PubChem BioAssay AID463074.

Test system: HMLE_sh_eGFP viability, CellTiter-Glo luminescence, 72 h
MEASUREMENT_PROTOCOL: cytotoxicity in HMLE control line with eGFP shRNA, dose response, counter-screen for HMLE_sh_ECad selective toxicity project, cell-based, HMLE_sh_eGFP, luminescence (AID 463074);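 note: counterscreen control line to flag general toxicity for the HMLE_sh_ECad screen; potency for loss of viability as luminescence drops below DMSO wells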
Active and inactive are the calls of the source.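 Rule for the calls: active = AC50 no more than tenfold above the top dose tested, or full inhibition at every dose with a flat fit (cut at about 19 µM in these data); inconclusive = flat curve fit with inhibition between 30% and 70%, or poor fit; inactive = AC50 more than tenfold above the top dose tested.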
Hi! Could you answer with just one of these? Y (active), N (inactive)

# lookup: test call for COc1ccc(/C=C/C(=O)c2ccc(O)cc2)cc1COc1ccc(F)cc1
Y

# lookup: test call for OC(CNCc1ccco1)Cn1c2ccc(Br)cc2c2cc(Br)ccc21 (stereo not given)
Y

# lookup: test call for COc1ccc(C2NCCc3c2[nH]c2ccccc32)cc1CSc1nc2ccccc2s1 (stereo not given)
Y

# lookup: test call for COc1ccc(OC)c(C(=O)CSc2nccc(-c3ccc(Br)cc3)n2)c1
Y

# lookup: test call for CC(=O)Oc1ccc2ccccc2c1C(NC(=O)Cc1ccccc1)c1ccc(Cl)cc1 (stereo not given)
Y

# lookup: test call for O=C1CC(N(CCc2ccccc2)C(=S)Nc2cc(Cl)ccc2Cl)C(=O)N1c1c(Cl)cccc1Cl (stereo not given)
N

# lookup: test call for COc1ccc(Cc2nnc(N/N=C/c3ccccc3O)[nH]c2=O)cc1OC
Y

# lookup: test call for CC1(C)CN(c2ccccc2)N(C(=O)c2ccc(F)cc2)C1=O
Y

# lookup: test call for COc1ccc(/C=C/c2nc3cc(-c4ccccc4)ccc3o2)cc1O
Y

# lookup: test call for CCC(=O)Nc1nc(C)c(-c2csc(Nc3cccc(O)c3)n2)s1
Y

----------
Tested on: HMLE_sh_eGFP viability, CellTiter-Glo luminescence, 72 h
MEASUREMENT_PROTOCOL: cytotoxicity in HMLE control line with eGFP shRNA, dose response, counter-screen for HMLE_sh_ECad selective toxicity project, cell-based, HMLE_sh_eGFP, luminescence (AID 463074)
Calls of active or inactive are those of the source.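 How the source made its calls: active means AC50 no more than tenfold above the top dose tested, or full inhibition at every dose with a flat fit (cut at about 19 µM in these data); inconclusive means flat curve fit with inhibition between 30% and 70%, or poor fit; inactive means AC50 more than tenfold above the top dose tested.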
Hi! Could you answer with just one of these? 1 = active, 0 = inactive

# lookup: test call for C=C(C)[C@@H]1CC[C@]2(C(=O)O)CC[C@]3(C)[C@H](CC[C@@H]4[C@@]5(C)CC[C@H](O)C(C)(C)[C@@H]5CC[C@]43C)[C@@H]12
1

# lookup: test call for CC(C)C[C@H](N)c1nnc(S(=O)(=O)Cc2ccc(F)cc2)o1
1

# lookup: test call for CC(=O)Oc1ccc(C2=NN(c3ccccc3)C(c3ccccc3)C2)cc1 (stereo unspecified)
1

# lookup: test call for CC1=C(C(=O)OC2CCCC2)C(c2coc3ccccc3c2=O)C2=C(CC(C)(C)CC2=O)N1 (stereo unspecified)
0

# lookup: test call for COc1cc(NS(C)(=O)=O)ccc1Nc1c2ccccc2nc2ccccc12
1

# lookup: test call for Cc1cccc(C(=O)NNC2=C(C(=O)C(F)(F)F)CCC2)c1O
1

----------
Tested on: HMLE_sh_eGFP viability, CellTiter-Glo luminescence, 72 h
MEASUREMENT_PROTOCOL: cytotoxicity in HMLE control line with eGFP shRNA, dose response, counter-screen for HMLE_sh_ECad selective toxicity project, cell-based, HMLE_sh_eGFP, luminescence (AID 463074);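 note: counterscreen control line to flag general toxicity for the HMLE_sh_ECad screen; potency for loss of viability as luminescence drops below DMSO wells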
The source made the active and inactive calls.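 How the source made its calls: active means AC50 no more than tenfold above the top dose tested, or full inhibition at every dose with a flat fit (cut at about 19 µM in these data); inconclusive means flat curve fit with inhibition between 30% and 70%, or poor fit; inactive means AC50 more than tenfold above the top dose tested.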
Hi! Could you answer with just one of these? label 1 = active, label 0 = inactive

# lookup: test call for CN1CCN(c2ccccc2NC(=O)c2ccc(-c3ccc(Cl)cc3Cl)o2)CC1
label 1

# lookup: test call for COc1ccccc1/C=C1\SC(=S)N(CCC(=O)NCCCn2ccnc2)C1=O
label 1

# lookup: test call for Cc1ccc(C)c(NC(=O)CSc2nc3nc(-c4cccs4)cc(C(F)(F)F)c3c(=O)[nH]2)c1
label 1

# lookup: test call for CC(C)COc1ccc(-c2nn(-c3ccccc3)cc2/C=C2/SC(=S)N(CC(=O)O)C2=O)cc1
label 1

# lookup: test call for CCOc1ccc(OCc2cccc(C(=O)Nc3ccc(CN4CCCCC4)cc3)c2)cc1
label 1

# lookup: test call for CC(C)(C)c1cc(C(=O)N/N=C/c2ccccc2O)n(-c2ccccc2)n1
label 1

# lookup: test call for CCSc1nnc(NC(=O)NC(CC)(C(F)(F)F)C(F)(F)F)s1
label 1

# lookup: test call for COc1cccc(-c2sc3ccc(OC)cc3c2-c2ccc(OCCN(C)C)cc2)c1
label 1

# lookup: test call for COC(=O)[C@@H]1C[C@]2(OC(=O)c3ccccc3)C=CC(=O)C[C@@H]2N1C(=O)OCc1ccccc1
label 1

# lookup: test call for CCOC(=O)C(=Cc1ccc(-n2cncn2)cc1)C(=O)OCC
label 1

# lookup: test call for CCOC(=O)c1c(C)[nH]c(C(=O)N/N=C\c2ccccc2O)c1C
label 1

# lookup: test call for O=C(C1CCCN(S(=O)(=O)c2ccc([N+](=O)[O-])cc2)C1)N1CCCCC1 (centres undefined)
label 0

# lookup: test call for CC1=CC(C)[C@H](/C=N/n2c(=O)[nH]c3c([nH]c4ccc(Br)cc43)c2=O)C(C)C1 (some centres undefined)
label 1

# lookup: test call for COc1cc(/C=C2/CCC/C(=C\c3cc(O)c(OC)c(Cl)c3)C2=O)cc(Cl)c1O
label 1

# lookup: test call for C[C@]12CC[C@H]3[C@@H](CC[C@]4(O)C[C@@H](O)CC[C@]34C=O)[C@@]1(O)CC[C@@H]2C1=CC(=O)OC1
label 1

# lookup: test call for N#CCSc1nc2ccccc2c2nc3ccccc3n12
label 1

# lookup: test call for CCc1ccc2c(c1)[C@H]1OCC[C@H]1[C@@H](c1cccs1)N2
label 1

# lookup: test call for Cc1cc(-c2ccccc2)nc2cc(C(=O)N(Cc3ccccc3)Cc3ccccc3)nn12
label 1

# lookup: test call for COc1cccc(-c2cc(=O)c3cc(NC(=O)c4ccc(N(C)C)cc4)ccc3[nH]2)c1
label 1

# lookup: test call for NC(=O)CC(NC(=O)Cc1ccc(Br)cc1)c1ccc(N2CCC(Cc3ccccc3)CC2)c([N+](=O)[O-])c1 (centres undefined)
label 1

# lookup: test call for Cc1ccn2c(NCc3ccccc3)c(-c3cccc(SC4CCCCC4)c3)nc2c1
label 1

# lookup: test call for COC(=O)c1cccc(Nc2cc(C)nc(-c3ccccc3O)n2)c1
label 1

# lookup: test call for c1cc2cc(-c3c(-c4ccc5c(c4)OCO5)noc3-c3ccsc3)ccc2[nH]1
label 1

# lookup: test call for CCCn1c(SCC#N)nc2c(c1=O)C1(CCCC1)Cc1ccccc1-2
label 1

# lookup: test call for O=c1c2ccccc2nc(COc2ccccc2)n1/N=C/c1cc([N+](=O)[O-])ccc1O
label 0

# lookup: test call for Cc1ccc(-c2csc(-c3c[nH]c4ccccc34)n2)c(C)c1
label 1

# lookup: test call for Cc1cc(C(=O)CN2C(=O)C(=O)N(Cc3ccccc3)C2=O)c(C)n1Cc1ccccc1
label 1

# lookup: test call for Cc1ccc(OCC(O)Cn2c3ccccc3c3ccccc32)cc1 (centres undefined)
label 1

# lookup: test call for OCCCNc1cc(-c2ccccc2)nc2cc(-c3ccc(F)cc3)nn12
label 1

----------
Tested on: HMLE_sh_eGFP viability, CellTiter-Glo luminescence, 72 h
MEASUREMENT_PROTOCOL: cytotoxicity in HMLE control line with eGFP shRNA, dose response, counter-screen for HMLE_sh_ECad selective toxicity project, cell-based, HMLE_sh_eGFP, luminescence (AID 463074);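 note: counterscreen control line to flag general toxicity for the HMLE_sh_ECad screen; potency for loss of viability as luminescence drops below DMSO wells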
Active and inactive are the calls of the source.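 Rule for the calls: active = AC50 no more than tenfold above the top dose tested, or full inhibition at every dose with a flat fit (cut at about 19 µM in these data); inconclusive = flat curve fit with inhibition between 30% and 70%, or poor fit; inactive = AC50 more than tenfold above the top dose tested.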
Field: AC50. Provide a value for each of the molecules that follow.

The recorded AC50 for COc1ccc(Br)cc1C(=O)Nc1cccc(C)c1 is > 19.5 µM (inactive)

The recorded AC50 for O=C(Nc1nccs1)c1ccc(COc2ccccc2Br)o1 is 4.84 µM

The recorded AC50 for Cc1ccc(S(=O)(=O)N2CCN(C(=O)COc3ccc(NC(=O)c4ccco4)cc3)CC2)cc1 is > 19.5 µM (inactive)

The recorded AC50 for Cn1ncc2c(Nc3cccc(Cl)c3)nc(Nc3cccc(Cl)c3)nc21 is 3.71 µM

The recorded AC50 for COc1ccc(-c2sc3ccccc3c2-c2ccc(OCCN3CCCCC3)cc2)cc1 is 1.4 µM

The recorded AC50 for Clc1ccc(C(c2ccccc2Cl)C(Cl)Cl)cc1 (stereo unspecified) is 6.32 µM

----------
System: HMLE_sh_eGFP viability, CellTiter-Glo luminescence, 72 h
MEASUREMENT_PROTOCOL: cytotoxicity in HMLE control line with eGFP shRNA, dose response, counter-screen for HMLE_sh_ECad selective toxicity project, cell-based, HMLE_sh_eGFP, luminescence (AID 463074);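 note: counterscreen control line to flag general toxicity for the HMLE_sh_ECad screen; potency for loss of viability as luminescence drops below DMSO wells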
The source made the active and inactive calls.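 Rule for the calls: active = AC50 no more than tenfold above the top dose tested, or full inhibition at every dose with a flat fit (cut at about 19 µM in these data); inconclusive = flat curve fit with inhibition between 30% and 70%, or poor fit; inactive = AC50 more than tenfold above the top dose tested.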
Hi! Could you answer with just one of these? Y = active, N = inactive

# lookup: test call for CC(=O)Nc1ccc(SCC(=O)c2cc(C)n(-c3ccccc3)c2C)cc1
Y

# lookup: test call for Oc1ccc(Nc2nc(-c3ccc4ccccc4c3)cs2)cc1
Y

# lookup: test call for O=C(Cc1ccccc1)Nc1cccc(NC(=O)c2ccccc2)c1
Y

# lookup: test call for CCN1CCN(CCCOc2ccc(-c3ccccc3)cc2)CC1
Y

# lookup: test call for CCCc1[nH]c2ccc(C#N)cc2c1CCC
Y

# lookup: test call for COC(=O)c1c(-c2ccc(OC)cc2)oc2ccc(-c3cc(OC)c(OC)c(OC)c3)cc12
Y

# lookup: test call for CC1=C(C(=O)OC2CCCCC2)C(c2ccc(C)o2)C2=C(CC(C)(C)CC2=O)N1 (stereo not given)
Y

# lookup: test call for Oc1ccc(Br)cc1/C=N/NC(=S)NCCc1ccccc1
Y

# lookup: test call for COc1ccc(CCNc2ccc(C(CC(N)=O)NC(=O)c3ccc(Br)cc3)cc2[N+](=O)[O-])cc1 (stereo not given)
Y

# lookup: test call for C[C@@H]1O[C@@H](O[C@H]2C[C@@H](O)[C@]3(CO)[C@H]4[C@H](O)C[C@]5(C)[C@@H](C6=CC(=O)OC6)CC[C@]5(O)[C@@H]4CC[C@]3(O)C2)[C@H](O)[C@H](O)[C@H]1O
Y

# lookup: test call for CC(C)COC(=O)c1cccc2c1-c1ccccc1/C2=N\O
Y

# lookup: test call for O=C(N/N=C/c1cc(Cl)ccc1O)c1ccc(Br)cc1
Y

# lookup: test call for COC(=O)C(Cc1ccc(N(CCCl)CCCl)cc1)N=Cc1ccccc1O (stereo not given)
Y

# lookup: test call for CC(C)[C@@H]1CC[C@@H](C)c2c(-c3ccccc3)n[nH]c21
Y

# lookup: test call for CC(=O)Nc1ccc(-c2csc(NC(=O)Cc3ccccc3F)n2)cc1
Y

# lookup: test call for CCC/C=C(\CCC)C(NS(=O)(=O)c1ccc(C(F)(F)F)cc1)c1ccccc1 (stereo not given)
Y

# lookup: test call for CCCCCCCCNC(C)C(O)c1ccc(SC(C)C)cc1 (stereo not given)
Y

# lookup: test call for Fc1cccc(-c2cc3nc4c(c(NCc5ccco5)n3n2)CCCC4)c1
Y

# lookup: test call for CN(C)CCNC(=O)COc1ccc(C23CC4CC(CC(C4)C2)C3)cc1
Y

# lookup: test call for CS(=O)(=O)Nc1ccccc1C(=O)Nc1cccc(Cl)c1
N

# lookup: test call for C[C@@H]1CC[C@]2(C(=O)O)CC[C@]3(C)C(=CCC4[C@]56CC[C@@](O)(OC5)C(C)(C)C6CC[C@]43C)C2[C@H]1C (stereo not given in full)
Y

# lookup: test call for Cc1cccc(NC(=O)CCC(=O)N/N=C/c2ccc(O)cc2O)c1
Y

# lookup: test call for Cc1ccc2nc(-c3cccc(NS(C)(=O)=O)c3)cc(-c3ccccc3)c2c1
Y

# lookup: test call for C[C@@H]1CC=C[C@H]2[C@H]1C(=O)N(Cc1ccccc1)[C@H]2c1ccc2ccccc2c1
Y

# lookup: test call for O=C(Nc1ccc(O)cc1)c1ccc(NC(=O)c2cccs2)cc1
Y

# lookup: test call for CCCC(c1nnnn1CC1CCCO1)N1CCN(c2cc(Cl)ccc2C)CC1 (stereo not given)
Y

# lookup: test call for COc1cc(C2NCC(c3ccc(Cl)cc3Cl)c3c2[nH]c2ccccc32)cc(OC)c1OC (stereo not given)
Y

# lookup: test call for O=C(CCC1CCCC1)Nc1ccc(C(=O)NCc2cccnc2)cc1
Y

# lookup: test call for C1=C(c2sc3ccccc3c2-c2ccc(OCCN3CCOCC3)cc2)CCCC1
Y

# lookup: test call for O=C(CSc1nnc(-c2ccccc2O)n1Cc1ccccc1)NNC(=O)c1ccccc1O
Y
